Recorded values, source patent US4212862A.

Assay: Acute peroral toxicity for warm-blooded animals (LD50, LD90)
Assay type: in vivo, white mice
Conditions: mouse, in vivo, po, Table 14; female mice, peroral; read-out: LD50 with trusty limits
Readout Name: LD50 at 336 h (mg/kg)
Give the quantity in mg/kg, number only.

[Q] Need LD50 at 336 h, item CC(=O)OC(C(Cl)(Cl)Cl)P(=O)(Oc1ccccc1)Oc1ccccc1 (stereo not shown)
[A] 3500

---

Known LD50 at 336 h of a selection of compounds
Assay: Acute peroral toxicity for warm-blooded animals (LD50, LD90)
Assay type: in vivo, white mice
Details: mouse, in vivo, po, Table 2; peroral; read-out: LD50 for white mice

These solved cases illustrate the format of a correct answer.
| Compound | LD50 at 336 h |
| --- | --- |
| O=C(OC(C(Cl)(Cl)Cl)P(=O)(Oc1ccccc1)Oc1ccccc1)c1ccccc1 (centres unmarked) [VI] | > 1000 mg/kg |
| CCCCC(CC)C(=O)OC(C(Cl)(Cl)Cl)P(=O)(Oc1ccc(F)cc1)Oc1ccc(F)cc1 (centres unmarked) [XXXVI] | > 1000 mg/kg |
| CC(=O)OC(C(Cl)(Cl)Cl)P(=O)(Oc1ccc(C)cc1)Oc1ccc(C)cc1 (centres unmarked) [XVIII] | > 500 mg/kg |
| CCCCC(CC)C(=O)OC(C(Cl)(Cl)Cl)P(=O)(Oc1ccc(C)cc1)Oc1ccc(C)cc1 (centres unmarked) [XXII] | > 1000 mg/kg |
| O=P(Oc1ccccc1)(Oc1ccccc1)C(O)C(Cl)(Cl)Cl (centres unmarked) [reference compound] | > 400 mg/kg |

[Q] Need LD50 at 336 h, item CCCCCCC(=O)OC(C(Cl)(Cl)Cl)P(=O)(Oc1cccc(C)c1)Oc1cccc(C)c1 (centres unmarked) [XV]
[A] > 1000 mg/kg

[Q] Need LD50 at 336 h, item CCCC(=O)OC(C(Cl)(Cl)Cl)P(=O)(Oc1cccc(C)c1)Oc1cccc(C)c1 (centres unmarked) [XIV]
[A] > 1000 mg/kg

[Q] Need LD50 at 336 h, item COP(=O)(OC)C(OC(C)=O)C(Cl)(Cl)Cl (centres unmarked) [chloracetophos, reference compound]
[A] > 1000 mg/kg

---

Assay: Acute peroral toxicity for warm-blooded animals (LD50, LD90)
Format: in vivo, white mice
Settings: mouse, in vivo, po, white mice, peroral administration; read-out: acute toxicity
Method: Toxicity (LD50) was evaluated on males and females of white mice with peroral administration of the compounds. A portion of the test compound was mixed with the emulsifier Twin-20 and diluted with distilled water to the required working concentration. Administration of the preparation was effected by means of a metal probe and syringe directly into the stomach of test animals 2-3 hours after feeding. The tests were performed using several doses, 6 animals per each dose. […]
Readout Name: LD50 at 336 h

[Q] Need LD50 at 336 h, item CC(=O)OC(C(Cl)(Cl)Cl)P(=O)(Oc1ccccc1)Oc1ccccc1 (stereo not shown) [I]
[A] ~3500 mg/kg

---

Known LD50 at 336 h of a selection of compounds
Experiment: Acute peroral toxicity for warm-blooded animals (LD50, LD90)
Format: in vivo, white mice
Conditions: mouse, in vivo, po, Table 2; peroral; read-out: LD50 for white mice

These solved cases illustrate the format of a correct answer.
| Compound | LD50 at 336 h |
| --- | --- |
| CC(=O)OC(C(Cl)(Cl)Cl)P(=O)(Oc1cc(C)cc(C)c1)Oc1cc(C)cc(C)c1 (centres unmarked) | > 1000 mg/kg |
| CCCC(=O)OC(C(Cl)(Cl)Cl)P(=O)(Oc1ccccc1)Oc1ccccc1 (centres unmarked) | > 500 mg/kg |
| CCC(=O)OC(C(Cl)(Cl)Cl)P(=O)(Oc1cccc2ccccc12)Oc1cccc2ccccc12 (centres unmarked) | > 1000 mg/kg |
| O=C(OC(C(Cl)(Cl)Cl)P(=O)(Oc1ccc(F)cc1)Oc1ccc(F)cc1)c1ccccc1 (centres unmarked) | > 1000 mg/kg |

Proceed to the following item.
[Q] Need LD50 at 336 h, item CCC(=O)OC(C(Cl)(Cl)Cl)P(=O)(Oc1ccc(Cl)cc1)Oc1ccc(Cl)cc1 (centres unmarked)
[A] > 1000 mg/kg

---

System: stalk rust (Puccinia graminis f. tritici)
Assay type: in vivo
Settings: in vivo
Known Weight of 1,000 grains of a selection of molecules
Give the quantity in g, number only.

These solved cases illustrate the format of a correct answer.
| Molecule | Weight of 1,000 grains [g] |
| --- | --- |
| CCCC(=O)OC(C(Cl)(Cl)Cl)P(=O)(Oc1cc(C)cc(C)c1)Oc1cc(C)cc(C)c1 (stereo not shown) | 16.6 |
| CC(=O)OC(C(Cl)(Cl)Cl)P(=O)(Oc1ccc(Cl)cc1)Oc1ccc(Cl)cc1 (stereo not shown) | 20.9 |
| CC(=O)OC(C(Cl)(Cl)Cl)P(=O)(Oc1ccccc1)Oc1ccccc1 (stereo not shown) | 18.7 |
| CCCC(=O)OC(C(Cl)(Cl)Cl)P(=O)(Oc1ccc(C)cc1)Oc1ccc(C)cc1 (stereo not shown) | 18.2 |

Proceed to the following item.
[Q] Need Weight of 1,000 grains, item CCCCCCC(=O)OC(C(Cl)(Cl)Cl)P(=O)(Oc1cccc(C)c1)Oc1cccc(C)c1 (stereo not shown)
[A] 19.4

---

System: stalk rust (Puccinia graminis f. tritici)
Format: in vivo
Conditions: in vivo
Known Weight of 1,000 grains of a selection of compounds
Give the quantity in g, number only.

| Compound | Endpoint Unit | Weight of 1,000 grains |
| --- | --- | --- |
| CCC(=O)OC(C(Cl)(Cl)Cl)P(=O)(Oc1ccc(C)cc1)Oc1ccc(C)cc1 (centres unmarked) | g | 18.9 |
| CCC(=O)OC(C(Cl)(Cl)Cl)P(=O)(Oc1ccc(Cl)cc1)Oc1ccc(Cl)cc1 (centres unmarked) | g | 18.0 |
| CCC(=O)OC(C(Cl)(Cl)Cl)P(=O)(Oc1cccc(C)c1)Oc1cccc(C)c1 (centres unmarked) | g | 16.9 |
| CCC(=O)OC(C(Cl)(Cl)Cl)P(=O)(Oc1ccccc1)Oc1ccccc1 (centres unmarked) | g | 16.5 |
| CCCCC(CC)C(=O)OC(C(Cl)(Cl)Cl)P(=O)(Oc1ccc(C)cc1)Oc1ccc(C)cc1 (centres unmarked) | g | 15.8 |

[Q] Need Weight of 1,000 grains, item Cc1ccc(OP(=O)(Oc2ccc(C)cc2)C(OC(=O)c2ccccc2)C(Cl)(Cl)Cl)cc1 (centres unmarked)
[A] 18.1

[Q] Need Weight of 1,000 grains, item CCCC(=O)OC(C(Cl)(Cl)Cl)P(=O)(Oc1ccccc1)Oc1ccccc1 (centres unmarked)
[A] 18.4

[Q] Need Weight of 1,000 grains, item CC(=O)OC(C(Cl)(Cl)Cl)P(=O)(Oc1ccc(C)cc1)Oc1ccc(C)cc1 (centres unmarked)
[A] 21.4

[Q] Need Weight of 1,000 grains, item CC(=O)OC(C(Cl)(Cl)Cl)P(=O)(Oc1cccc(C)c1)Oc1cccc(C)c1 (centres unmarked)
[A] 16.1

[Q] Need Weight of 1,000 grains, item CC(=O)OC(C(Cl)(Cl)Cl)P(=O)(Oc1ccccc1C)Oc1ccccc1C (centres unmarked)
[A] 15.1

[Q] Need Weight of 1,000 grains, item CCCC(=O)OC(C(Cl)(Cl)Cl)P(=O)(Oc1cccc(C)c1)Oc1cccc(C)c1 (centres unmarked)
[A] 17.2

---

Tested on: stalk rust (Puccinia graminis f. tritici)
Format: in vivo
Conditions: in vivo
Readout Name: Weight of 1,000 grains (g)
Give the quantity in g, number only.

These solved cases illustrate the format of a correct answer.
| Molecule | Measured On | Endpoint Unit | Weight of 1,000 grains |
| --- | --- | --- | --- |
| CCCCCCCCc1ccc(OP(=O)(Oc2ccc(CCCCCCCC)cc2)C(OC(C)=O)C(Cl)(Cl)Cl)cc1 (stereo not drawn) [XXIV] | stalk rust (Puccinia graminis f. tritici) | g | 13.5 |
| CCCC(=O)OC(C(Cl)(Cl)Cl)P(=O)(Oc1ccc(F)cc1)Oc1ccc(F)cc1 (stereo not drawn) [XXXIV] | stalk rust (Puccinia graminis f. tritici) | g | 19.6 |
| CCCCCCC(=O)OC(C(Cl)(Cl)Cl)P(=O)(Oc1ccccc1)Oc1ccccc1 (stereo not drawn) [IV] | stalk rust (Puccinia graminis f. tritici) | g | 23.8 |
| O=C(OC(C(Cl)(Cl)Cl)P(=O)(Oc1ccccc1)Oc1ccccc1)c1ccccc1 (stereo not drawn) [VI] | stalk rust (Puccinia graminis f. tritici) | g | 16.4 |
| CCCCC(CC)C(=O)OC(C(Cl)(Cl)Cl)P(=O)(Oc1ccccc1)Oc1ccccc1 (stereo not drawn) [V] | stalk rust (Puccinia graminis f. tritici) | g | 14.8 |

[Q] Lab request: please report Weight of 1,000 grains under test system stalk rust (Puccinia graminis f. tritici) for CCC(=O)OC(C(Cl)(Cl)Cl)P(=O)(Oc1cc(C)cc(C)c1)Oc1cc(C)cc(C)c1 (stereo not drawn) [XXVII]
[A] 17.1

[Q] Lab request: please report Weight of 1,000 grains under test system stalk rust (Puccinia graminis f. tritici) for CCC(=O)OC(C(Cl)(Cl)Cl)P(=O)(Oc1ccccc1C)Oc1ccccc1C (stereo not drawn) [VIII]
[A] 15.3
